- tested_target: Tyrosyl-DNA phosphodiesterase 2 (Homo sapiens, UniProt O95551)
- Sequence (O95551 whole entry): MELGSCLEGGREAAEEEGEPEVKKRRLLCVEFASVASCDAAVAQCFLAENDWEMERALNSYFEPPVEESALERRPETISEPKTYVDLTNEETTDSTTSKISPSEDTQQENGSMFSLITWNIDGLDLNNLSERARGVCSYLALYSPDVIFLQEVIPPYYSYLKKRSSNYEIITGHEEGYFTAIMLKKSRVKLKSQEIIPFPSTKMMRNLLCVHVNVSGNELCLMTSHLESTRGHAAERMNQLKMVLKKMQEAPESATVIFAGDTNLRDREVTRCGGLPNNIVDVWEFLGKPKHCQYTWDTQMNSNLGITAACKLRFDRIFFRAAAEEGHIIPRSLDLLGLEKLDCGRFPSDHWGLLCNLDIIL
- measurement_protocol: Inhibition of recombinant human TDP2 using alpha32P-cordycepin-[…]-labeled 19-mer single-stranded oligonucleotide DNA containing 5'-phosphotyrosine (Y19) for 15 mins by PAGE assay
measurement_type: IC50
Be sure to follow the number with its unit.

stdin: Give Tyrosyl-DNA phosphodiesterase 2 (Homo sapiens, UniProt O95551) IC50 for `O=C1c2cc3c(cc2-c2c1c1ccc(F)cc1c(=O)n2CCCNCCO)OCO3`
stdout: 6.3 µM

stdin: Give Tyrosyl-DNA phosphodiesterase 2 (Homo sapiens, UniProt O95551) IC50 for `O=C1c2cc3c(cc2-c2c1c1ccc(Cl)cc1c(=O)n2CCCNCCO)OCO3`
stdout: 8.9 µM

* * *

- tested_target: DNA topoisomerase 1 (Homo sapiens)
- measurement_protocol: Activity at recombinant Top1 (unknown origin) using 3'-[32P]-labeled double-stranded DNA (117 bp) as substrate assessed as induction of DNA cleavage at 0.1 to 100 uM incubated for 20 mins by electrophoretic assay relative to 1 uM camptothecin
Could you please report measured Activity for the items listed next?
Please reply with the bare figure in % and do not write the unit itself.

stdin: Entry under review: `O=C1c2cc3c(cc2-c2c1c1ccc(Cl)cc1c(=O)n2CCCn1ccnc1)OCO3` . Reported Activity?
stdout: 50

stdin: Entry under review: `O=C1c2cc3c(cc2-c2c1c1ccc(Cl)cc1c(=O)n2C[C@H](O)CO)OCO3` . Reported Activity?
stdout: 50

stdin: Entry under review: COc1cc2c3c(n(CCCNCCO)c(=O)c2cc1OC)-c1cc2c(cc1C3=O)OCO2 [LMP-744] . Reported Activity?
stdout: 100

stdin: Entry under review: `O=C1c2cc3c(cc2-c2c1c1cc(F)c(F)cc1c(=O)n2C[C@H](O)CO)OCO3` . Reported Activity?
stdout: 50

stdin: Entry under review: `O=C1c2cc3c(cc2-c2c1c1cc(Cl)c(Cl)cc1c(=O)n2C[C@H](O)CO)OCO3` . Reported Activity?
stdout: 50

stdin: Entry under review: `O=C1c2cc3c(cc2-c2c1c1ccc(F)cc1c(=O)n2C[C@H](O)CO)OCO3` . Reported Activity?
stdout: 100

stdin: Entry under review: `O=C1c2cc3c(cc2-c2c1c1cc(Cl)c(Cl)cc1c(=O)n2CCCn1ccnc1)OCO3` . Reported Activity?
stdout: 20

stdin: Entry under review: `O=C1c2cc3c(cc2-c2c1c1ccc(F)cc1c(=O)n2CCCN1CCOCC1)OCO3` . Reported Activity?
stdout: 20

stdin: Entry under review: `O=C1c2cc3c(cc2-c2c1c1ccc(F)cc1c(=O)n2CCCn1ccnc1)OCO3` . Reported Activity?
stdout: 75

stdin: Entry under review: `O=C1c2cc3c(cc2-c2c1c1ccc(Cl)cc1c(=O)n2C[C@H](O)[C@H](O)[C@H](O)CO)OCO3` . Reported Activity?
stdout: 20

stdin: Entry under review: `O=C1c2cc3c(cc2-c2c1c1ccc(Cl)cc1c(=O)n2CCCNCCO)OCO3` . Reported Activity?
stdout: 75

stdin: Entry under review: `O=C1c2cc3c(cc2-c2c1c1cc(F)c(F)cc1c(=O)n2CCCn1ccnc1)OCO3` . Reported Activity?
stdout: 20

stdin: Entry under review: `O=C1c2cc3c(cc2-c2c1c1ccc(F)cc1c(=O)n2C[C@H](O)[C@@H](O)[C@H](O)CO)OCO3` . Reported Activity?
stdout: 50

stdin: Entry under review: `O=C1c2cc3c(cc2-c2c1c1ccc(Cl)cc1c(=O)n2CCCN1CCOCC1)OCO3` . Reported Activity?
stdout: 20

stdin: Entry under review: `O=C1c2cc3c(cc2-c2c1c1ccc(F)cc1c(=O)n2CCCNCCO)OCO3` . Reported Activity?
stdout: 50

* * *

- tested_target: Tyrosyl-DNA phosphodiesterase 1 (Homo sapiens, UniProt Q9NUW8)
- Sequence (Q9NUW8 whole entry): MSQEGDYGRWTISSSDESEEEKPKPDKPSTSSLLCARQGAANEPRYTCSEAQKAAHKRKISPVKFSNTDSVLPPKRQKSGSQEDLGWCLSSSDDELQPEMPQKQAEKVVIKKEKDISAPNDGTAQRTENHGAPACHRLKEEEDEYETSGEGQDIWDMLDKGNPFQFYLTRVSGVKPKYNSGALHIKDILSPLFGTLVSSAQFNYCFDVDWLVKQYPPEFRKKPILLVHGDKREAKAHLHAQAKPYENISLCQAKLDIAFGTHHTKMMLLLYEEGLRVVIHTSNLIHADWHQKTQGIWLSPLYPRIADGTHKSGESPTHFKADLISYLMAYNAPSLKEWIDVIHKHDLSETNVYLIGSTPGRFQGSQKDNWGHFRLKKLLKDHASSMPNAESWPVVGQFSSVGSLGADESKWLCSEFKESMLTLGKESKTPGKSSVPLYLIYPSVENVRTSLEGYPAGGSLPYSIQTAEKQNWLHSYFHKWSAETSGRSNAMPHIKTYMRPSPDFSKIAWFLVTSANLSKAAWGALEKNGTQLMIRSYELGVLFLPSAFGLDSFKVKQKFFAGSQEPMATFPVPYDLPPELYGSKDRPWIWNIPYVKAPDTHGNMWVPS
- measurement_protocol: Inhibition of recombinant TDP1 (unknown origin) using 5'-[32P]-labeled single-stranded DNA oligonucleotide containing 3'-phosphotyrosine (N14Y) as substrate for 15 mins by PAGE assay
Could you please report measured IC50 for the items listed next?
Please reply with the bare figure in µM and do not write the unit itself.

stdin: Give Tyrosyl-DNA phosphodiesterase 1 (Homo sapiens, UniProt Q9NUW8) IC50 for `O=C1c2cc3c(cc2-c2c1c1ccc(Cl)cc1c(=O)n2CCCNCCO)OCO3`
stdout: 6.3

stdin: Give Tyrosyl-DNA phosphodiesterase 1 (Homo sapiens, UniProt Q9NUW8) IC50 for `O=C1c2cc3c(cc2-c2c1c1ccc(F)cc1c(=O)n2CCCNCCO)OCO3`
stdout: 6.2
